Please provide measured pIC50 for the entries that follow.
Test system: lung cancer cell line (A549)
Test: In vitro cytotoxicity, MTT assay, 48 h continuous drug exposure
Format: cell-based, human
Conditions: Homo sapiens, A549 cells, 48 h exposure
# log scale: pIC50 equals minus log10 of the concentration in mol/L

Q. Field request: pIC50 | item: COc1cc2c(cc1OCCCCN1CCN(C(=O)c3nc(-c4ccccc4)n4ccccc34)CC1)N=C[C@@H]1CCCN1C2=O
A. 4.80

Q. Can you look up the measured pIC50 of COc1cc2c(cc1OCCCN1CCN(C(=O)c3nc(-c4ccccc4)n4ccccc34)CC1)N=C[C@@H]1CCCN1C2=O for me?
A. 5.15

Q. pIC50 lookup needed for COc1cc2c(cc1OCCCCCCN1CCN(C(=O)c3nc(-c4ccccc4)n4ccccc34)CC1)N=C[C@@H]1CCCN1C2=O , thanks.
A. 4.91

Q. Endpoint output: pIC50 of C1=CC2=CN=c3ccccc3=CN2C1 [DC-81, pyrrolo[2,1-c][1,4]benzodiazepine] . Value?
A. 6.42
